Would you kindly list ACC BrainSphere.Cyto for each of these molecules?
System: BrainSpheres
Experiment: Cytotoxicity evaluation, resazurin assay (BrainSphere.Cyto)
Format: cell-based, human
Settings: tcplfit2 output ACC; activity cutoff in Supplemental Table 1

For `Brc1ccc(Oc2ccc(Br)cc2Br)c(Br)c1` , what is its reported ACC BrainSphere.Cyto?
89 µM

For `C/C(=C/C=C/[C@@H](C)C(=O)O)[C@H]1CN[C@H](C(=O)O)[C@H]1CC(=O)O` , what is its reported ACC BrainSphere.Cyto?
5.4 µM

For `CC(C)(c1ccc(O)cc1)c1ccc(O)cc1` , what is its reported ACC BrainSphere.Cyto?
11523 µM

For `[CH3][Hg][Cl]` , what is its reported ACC BrainSphere.Cyto?
0.18 µM

---

Tested on: human iPSC-derived 3D BrainSpheres
Assay: BrainSphere MEA assay (HD-MEA, 13-day exposure, concentration-response)
Type: cell-based
Conditions: tcplfit2 output ACC; activity cutoff in Supplemental Table 1
readout-name: ACC Mean.Spheroid.Burst.Peak.Firing.Rate (µM)
Field: numeric (µM). Do not append units.

Form field: ACC Mean.Spheroid.Burst.Peak.Firing.Rate recorded for `[CH3][Hg][Cl]` with human iPSC-derived 3D BrainSpheres (enter value)
2.5

Form field: ACC Mean.Spheroid.Burst.Peak.Firing.Rate recorded for `CC(C)(c1ccc(O)cc1)c1ccc(O)cc1` with human iPSC-derived 3D BrainSpheres (enter value)
28

Form field: ACC Mean.Spheroid.Burst.Peak.Firing.Rate recorded for `Brc1ccc(Oc2ccc(Br)cc2Br)c(Br)c1` with human iPSC-derived 3D BrainSpheres (enter value)
6.6

Form field: ACC Mean.Spheroid.Burst.Peak.Firing.Rate recorded for `CC1(C)[C@H](C(=O)O[C@H](C#N)c2cccc(Oc3ccccc3)c2)[C@@H]1C=C(Br)Br` with human iPSC-derived 3D BrainSpheres (enter value)
2.2

Form field: ACC Mean.Spheroid.Burst.Peak.Firing.Rate recorded for `C/C(=C/C=C/[C@@H](C)C(=O)O)[C@H]1CN[C@H](C(=O)O)[C@H]1CC(=O)O` with human iPSC-derived 3D BrainSpheres (enter value)
1.8

Form field: ACC Mean.Spheroid.Burst.Peak.Firing.Rate recorded for `ClC1=C(Cl)[C@]2(Cl)[C@@H]3[C@@H]4C[C@@H]([C@H]5O[C@@H]45)[C@@H]3[C@@]1(Cl)C2(Cl)Cl` with human iPSC-derived 3D BrainSpheres (enter value)
9.6

---

Would you kindly list Cytotoxicity hit for each of these molecules?
System: BrainSpheres
Test: Cytotoxicity evaluation, resazurin assay (BrainSphere.Cyto)
Assay type: cell-based, human
Conditions: resazurin, after 13 days of exposure
I only need the number, thanks.

Form field: Cytotoxicity hit recorded for `C/C(=C/C=C/[C@@H](C)C(=O)O)[C@H]1CN[C@H](C(=O)O)[C@H]1CC(=O)O` with BrainSpheres (enter value)
0

Form field: Cytotoxicity hit recorded for `Brc1ccc(Oc2ccc(Br)cc2Br)c(Br)c1` with BrainSpheres (enter value)
0

Form field: Cytotoxicity hit recorded for `[CH3][Hg][Cl]` with BrainSpheres (enter value)
0

Form field: Cytotoxicity hit recorded for `ClC1=C(Cl)[C@]2(Cl)[C@@H]3[C@@H]4C[C@@H]([C@H]5O[C@@H]45)[C@@H]3[C@@]1(Cl)C2(Cl)Cl` with BrainSpheres (enter value)
0

Form field: Cytotoxicity hit recorded for `CC(C)(c1ccc(O)cc1)c1ccc(O)cc1` with BrainSpheres (enter value)
0
